Numbers sourced from patent US9423396B2.

experiment: Spectroscopic measurements (absorption, emission, quantum yield, extinction coefficient); assay type: physicochemical; details: BDNCA library, difference emission minus absorption
Some molecules, each annotated with its measured Flu-Abs.

{"molecule": "COc1c(Br)cc(Br)cc1/C=C/C1=[N+]2C(=C(c3ccc(NC(=O)CCl)cc3)c3cccn3[B-]2(F)F)C(C)=C1 [BDNCA-241]", "Flu-Abs": 20}
{"molecule": "CC1=CC(/C=C/c2cc(Cl)ccc2O)=[N+]2C1=C(c1ccc(NC(=O)CCl)cc1)c1cccn1[B-]2(F)F [BDNCA-121]", "Flu-Abs": 21}
{"molecule": "Cc1cc(/C=C/c2ccccc2OC(F)F)n2c1C(c1ccc(NC(=O)CCl)cc1)=C1C=CC=[N+]1[B-]2(F)F [BDNCA-240]", "Flu-Abs": 19}
{"molecule": "COc1ccc(/C=C/C2=[N+]3C(=C(c4ccc(NC(=O)CCl)cc4)c4cccn4[B-]3(F)F)C(C)=C2)cc1OCc1ccccc1 [BDNCA-7]", "Flu-Abs": 46}
{"molecule": "CC1=CC(/C=C/c2ccoc2)=[N+]2C1=C(c1ccc(NC(=O)CCl)cc1)c1cccn1[B-]2(F)F [BDNCA-71]", "Flu-Abs": 20}
{"molecule": "CC1=CC(/C=C/c2nccn2C)=[N+]2C1=C(c1ccc(NC(=O)CCl)cc1)c1cccn1[B-]2(F)F [BDNCA-72]", "Flu-Abs": 45}
{"molecule": "CC1=CC(/C=C/c2ccc(I)cc2)=[N+]2C1=C(c1ccc(NC(=O)CCl)cc1)c1cccn1[B-]2(F)F [BDNCA-237]", "Flu-Abs": 19}
{"molecule": "COc1ccc(/C=C/C2=[N+]3C(=C(c4ccc(NC(=O)CCl)cc4)c4cccn4[B-]3(F)F)C(C)=C2)cc1O [BDNCA-132]", "Flu-Abs": 30}
{"molecule": "COc1cc(Cl)cc(/C=C/C2=[N+]3C(=C(c4ccc(NC(=O)CCl)cc4)c4cccn4[B-]3(F)F)C(C)=C2)c1OC [BDNCA-282]", "Flu-Abs": 20}
{"molecule": "COc1ccc(Br)cc1/C=C/c1cc(C)c2n1[B-](F)(F)[N+]1=CC=CC1=C2c1ccc(NC(=O)CCl)cc1 [BDNCA-54]", "Flu-Abs": 19}
{"molecule": "CCc1ccccc1/C=C/c1cc(C)c2n1[B-](F)(F)[N+]1=CC=CC1=C2c1ccc(NC(=O)CCl)cc1 [BDNCA-251]", "Flu-Abs": 23}
{"molecule": "COc1ccc(/C=C/c2cc(C)c3n2[B-](F)(F)[N+]2=CC=CC2=C3c2ccc(NC(=O)CCl)cc2)c(O)c1 [BDNCA-192]", "Flu-Abs": 53}
{"molecule": "CC1=CC(/C=C/c2ccc(Cl)cc2Cl)=[N+]2C1=C(c1ccc(NC(=O)CCl)cc1)c1cccn1[B-]2(F)F [BDNCA-147]", "Flu-Abs": 21}
{"molecule": "CC1=CC(/C=C/c2cccc(I)c2)=[N+]2C1=C(c1ccc(NC(=O)CCl)cc1)c1cccn1[B-]2(F)F [BDNCA-303]", "Flu-Abs": 19}

----------
assay: Spectroscopic measurements (absorption, emission, quantum yield, extinction coefficient); type: physicochemical; details: BDNCA library, extinction coefficient; in M-1 cm-1 (unit assumed)

{"molecule": "CC1=CC(/C=C/c2ccc(I)cc2)=[N+]2C1=C(c1ccc(NC(=O)CCl)cc1)c1cccn1[B-]2(F)F [BDNCA-237]", "ε": "70,572"}
{"molecule": "CC1=CC(/C=C/c2ccc(-n3ccnc3)cc2)=[N+]2C1=C(c1ccc(NC(=O)CCl)cc1)c1cccn1[B-]2(F)F [BDNCA-8]", "ε": "29,108"}
{"molecule": "COc1cc(OC)c(OC)cc1/C=C/C1=[N+]2C(=C(c3ccc(NC(=O)CCl)cc3)c3cccn3[B-]2(F)F)C(C)=C1 [BDNCA-144]", "ε": "62,609"}
{"molecule": "CC1=CC(/C=C/c2ccc3c(c2)OCO3)=[N+]2C1=C(c1ccc(NC(=O)CCl)cc1)c1cccn1[B-]2(F)F [BDNCA-139]", "ε": "35,423"}
{"molecule": "CC1=CC(/C=C/c2cc(Br)ccc2O)=[N+]2C1=C(c1ccc(NC(=O)CCl)cc1)c1cccn1[B-]2(F)F [BDNCA-73]", "ε": "27,185"}
{"molecule": "CC1=CC(/C=C/c2ccc(Cl)cc2)=[N+]2C1=C(c1ccc(NC(=O)CCl)cc1)c1cccn1[B-]2(F)F [BDNCA-12]", "ε": "49,428"}
{"molecule": "CC1=CC(/C=C/c2ccc(Cl)cc2Cl)=[N+]2C1=C(c1ccc(NC(=O)CCl)cc1)c1cccn1[B-]2(F)F [BDNCA-147]", "ε": "23,616"}
